The measured values listed here are drawn from patent US12600709B2.

Readings of EC50 for the listed compounds
subject-of-test: human somatostatin receptor subtype 5 (Homo sapiens, UniProt P35346)
Construct: expressed in transfected cells
Sequence (P35346 whole entry): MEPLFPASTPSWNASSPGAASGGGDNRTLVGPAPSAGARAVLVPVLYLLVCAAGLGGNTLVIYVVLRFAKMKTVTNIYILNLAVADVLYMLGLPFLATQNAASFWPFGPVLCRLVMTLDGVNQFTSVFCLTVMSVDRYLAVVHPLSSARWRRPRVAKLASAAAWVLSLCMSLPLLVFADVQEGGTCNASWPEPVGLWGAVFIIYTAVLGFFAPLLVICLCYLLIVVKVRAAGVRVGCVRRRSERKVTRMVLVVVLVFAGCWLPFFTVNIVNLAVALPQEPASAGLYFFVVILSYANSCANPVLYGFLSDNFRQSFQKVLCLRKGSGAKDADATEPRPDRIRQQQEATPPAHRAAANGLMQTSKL
assay-notes: cAMP assay for SST5R (inhibition of cAMP in CHO-K1 cells)
Format: cell-based
protocol-conditions: Table A; inhibition of cAMP via human SST5 receptor; read-out: SST5 potency

Recorded EC50, per entry:
COc1ncc(C(=O)NC23CC(F)(C2)C3)c(N2CC[C@H](N)C2)c1-c1cc(F)cc(F)c1    < 10 nM
C[C@]1(N)CCN(c2c(C(=O)NC(C3CC3)C3CC3)ccnc2-c2cc(F)cc(F)c2)C1    < 10 nM
Cc1ncc(C(=O)NC23CC(C2)C3)c(N2CC[C@](C)(N)C2)c1-c1cc(F)cc(F)c1    < 10 nM

Next item in the queue.
query: Please look up its EC50: Cc1cccc2[nH]c(-c3cncc(C(=O)N4CCC(C(F)(F)F)C4)c3N3CC[C@](C)(N)C3)nc12 (some centres unmarked)
result: 10 to 100 nM

----------
EC50 overview
subject-of-test: human somatostatin receptor subtype 2 (Homo sapiens, UniProt P30874)
Sequence (P30874 whole entry): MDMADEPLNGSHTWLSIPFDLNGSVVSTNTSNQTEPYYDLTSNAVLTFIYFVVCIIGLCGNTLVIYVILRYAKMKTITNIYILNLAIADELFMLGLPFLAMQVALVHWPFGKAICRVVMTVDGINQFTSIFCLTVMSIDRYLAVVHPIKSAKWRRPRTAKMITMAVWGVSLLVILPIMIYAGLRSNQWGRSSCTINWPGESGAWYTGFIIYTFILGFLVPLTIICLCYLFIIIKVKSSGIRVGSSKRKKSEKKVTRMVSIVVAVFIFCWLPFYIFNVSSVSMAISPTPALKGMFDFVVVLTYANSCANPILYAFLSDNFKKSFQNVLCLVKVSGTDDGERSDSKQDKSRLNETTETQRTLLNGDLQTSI
assay-notes: cAMP assay for SST2R (inhibition of cAMP in CHO-K1 cells)
protocol-conditions: Table B; inhibition of cAMP via human SST2 receptor; read-out: SST2 potency

Reference set (3 entries):
COCCOc1ncc(C(=O)N[C@@H](C)C2CC2)c(N2CC[C@](C)(N)C2)c1-c1cc(F)cc(F)c1    100 to 1000 nM
C[C@H](NC(=O)c1cnc(C#N)c(-c2ccn(C)n2)c1N1CC[C@](C)(N)C1)C1CC1    > 1000 nM
CC(NC(=O)c1cnc(C#N)c(-c2cc(F)cc(F)c2)c1N1CC[C@](C)(N)C1)c1ncccn1 (stereo partly shown)    > 1000 nM

query: I have this compound here, `C[C@]1(N)CCN(c2c(C(=O)NC(C3CC3)C3CC3)cncc2-c2cc(F)cc(F)c2)C1` , and I need its recorded EC50.
result: 100 to 1000 nM

----------
subject-of-test: human somatostatin receptor subtype 2 (Homo sapiens)
assay-notes: cAMP assay for SST2R (inhibition of cAMP in CHO-K1 cells)
protocol-conditions: Table B; inhibition of cAMP via human SST2 receptor; read-out: SST2 potency
observable: EC50

C[C@]1(N)CCN(c2c(C(=O)Nc3ccccc3F)cncc2-c2ccc(F)c(C#N)c2)C1    100 to 1000 nM
C[C@H](NC(=O)c1cnc(C#N)c(-c2cccc(OC(F)(F)F)c2)c1N1CC[C@](C)(N)C1)C1CC1    100 to 1000 nM
C[C@]1(N)CCN(c2c(C(=O)NC34CC(C3)C4)cnc(C#N)c2-c2cc(F)cc(F)c2)C1    100 to 1000 nM

query: Entry `C[C@H](NC(=O)c1cnc(C#N)c(-c2cc(F)cc(F)c2)c1N1CC[C@](C)(N)C1)C1CC1` : reported EC50 = ?
result: 10 to 100 nM

query: I would be grateful if you could share the reported EC50 for `Cc1ncc(C(=O)NC2CCCC2)c(N2CC[C@](C)(N)C2)c1-c1ccnc(C(F)(F)F)c1` .
result: > 1000 nM

----------
subject-of-test: human somatostatin receptor subtype 5 (Homo sapiens)
Construct: expressed in transfected cells
assay-notes: cAMP assay for SST5R (inhibition of cAMP in CHO-K1 cells)
Assay type: cell-based
protocol-conditions: Table A; inhibition of cAMP via human SST5 receptor; read-out: SST5 potency
pEC50: −log10 of the molar value.
observable: pEC50

Cc1cccc2[nH]c(-c3cncc(C(=O)N[C@H](C)C(F)(F)F)c3N3CC[C@](C)(N)C3)nc12    > 8.00
Cc1cnc(C(=O)N[C@@H](C)C2CC2)c(N2CC[C@](C)(N)C2)c1-c1cc(F)cc(F)c1    7.00 to 8.00
Cc1cc(F)cc(-c2cncc(C(=O)NC(C)C3CC3)c2N2CC[C@](C)(N)C2)c1 (some centres unmarked)    > 8.00
Cc1cccc2[nH]c(-c3cncc(C(=O)NC4CCC(F)(F)CC4)c3N3CC[C@](C)(N)C3)nc12    7.00 to 8.00
Cc1ncc(C(=O)N[C@@H](C)C2CC2)c(N2CC[C@](C)(N)C2)c1-c1ccnc(C(F)(F)F)c1    > 8.00
CC1(CNC(=O)c2cncc(-c3cc(F)cc(F)c3)c2N2CC[C@](C)(N)C2)CC1    > 8.00
Cc1cccc2[nH]c(-c3cncc(C(=O)NC4CCCCC4)c3N3CC[C@](C)(N)C3)nc12    > 8.00

query: Which value of pEC50 has been reported for `Cc1cccc2[nH]c(-c3cncc(C(=O)N4C[C@@H](C)O[C@@H](C)C4)c3N3CC[C@](C)(N)C3)nc12` in the records?
result: 7.00 to 8.00

----------
subject-of-test: human somatostatin receptor subtype 5 (Homo sapiens, UniProt P35346)
Construct: expressed in transfected cells
assay-notes: cAMP assay for SST5R (inhibition of cAMP in CHO-K1 cells)
Assay type: cell-based
protocol-conditions: Table A; inhibition of cAMP via human SST5 receptor; read-out: SST5 potency
pEC50: −log10 of the molar value.
observable: pEC50

Known pEC50 results, listed for orientation:
C[C@]1(N)CCN(c2c(C(=O)NC3CCCC3)ccnc2-c2cc(F)cc(F)c2)C1    7.00 to 8.00
C[C@H](NC(=O)c1cnc(C#N)c(-c2cccc(OC(F)(F)F)c2)c1N1CC[C@](C)(N)C1)C1CC1    > 8.00
COc1ncc(C(=O)N2CCC(F)(F)CC2)c(N2CC[C@H](N)C2)c1-c1cc(F)cc(F)c1    < 6.00

query: Look up pEC50: `Cc1ncc(C(=O)N[C@@H](C)C2CC2)c(N2CC[C@](C)(N)C2)c1-c1cncc(Cl)c1`
result: > 8.00

query: Please report the recorded pEC50 for `COc1ncc(C(=O)N[C@@H](C)C(F)(F)F)c(N2CC[C@](C)(N)C2)c1-c1cc(F)cc(OC(F)F)c1` .
result: > 8.00

----------
Here, each record is paired with measured EC50 data.
subject-of-test: human somatostatin receptor subtype 5 (Homo sapiens)
Construct: expressed in transfected cells
assay-notes: cAMP assay for SST5R (inhibition of cAMP in CHO-K1 cells)
Type: cell-based
protocol-conditions: Table A; inhibition of cAMP via human SST5 receptor; read-out: SST5 potency

Cc1cc(F)cc(-c2cncc(C(=O)NC3C4CC5CC(C4)CC3C5)c2N2CC[C@](C)(N)C2)c1 (stereo partly shown)    10 to 100 nM
C[C@H](NC(=O)c1cncc(-c2cccc(OC(F)F)c2)c1N1CC[C@](C)(N)C1)C1CC1    < 10 nM
N#Cc1ncc(C(=O)NC23CC(C2)C3)c(N2CC[C@H](N)C2)c1-c1ccc(F)c(F)c1    < 10 nM
COc1ncc(C(=O)NC2CC(F)(F)C2)c(N2CC[C@H](N)C2)c1-c1cc(F)cc(Cl)c1    < 10 nM

query: Which EC50 value is on record for `Cc1cccc2[nH]c(-c3cncc(C(=O)N(C)CC4CC4)c3N3CC[C@](C)(N)C3)nc12` ?
result: 10 to 100 nM

query: # input molecule: `N#Cc1ncc(C(=O)NC23CC(C2)C3)c(N2CC[C@@](N)(CO)C2)c1-c1cc(F)cc(F)c1` ; wanted: its EC50
result: < 10 nM

query: Any idea what EC50 was measured for `C[C@]1(N)CCN(c2c(C(=O)NC3CCC(F)(F)CC3)cncc2-c2cc(F)c(F)c(F)c2)C1` ?
result: < 10 nM

query: Record request: EC50 value, item `N[C@H]1CCN(c2c(C(=O)NC3CCC(F)(F)CC3)cnc(OCC(=O)O)c2-c2cc(F)cc(F)c2)C1`
result: < 10 nM

query: What does the data say about its EC50? Entry: Cc1cccc2[nH]c(-c3cncc(C(=O)NC(C)CC(F)(F)F)c3N3CC[C@](C)(N)C3)nc12 (stereo partly shown)
result: < 10 nM

----------
subject-of-test: human somatostatin receptor subtype 5 (Homo sapiens, UniProt P35346)
Construct: expressed in transfected cells
assay-notes: cAMP assay for SST5R (inhibition of cAMP in CHO-K1 cells)
Assay type: cell-based
protocol-conditions: Table A; inhibition of cAMP via human SST5 receptor; read-out: SST5 potency
observable: EC50

COc1ncc(C(=O)N[C@@H](C)C2CC2)c(N2CC[C@](C)(N)C2)c1-c1cc(F)cc(Cl)c1    < 10 nM
COc1ncc(C(=O)N[C@@H](C)C(F)(F)F)c(N2CC[C@](C)(N)C2)c1-c1ccc(Cl)c(F)c1    < 10 nM
COc1cc(-c2c(C)ncc(C(=O)NC3CCCCC3)c2N2CC[C@](C)(N)C2)ccn1    < 10 nM

query: Returns the measured EC50 for the input compound. Input: CC(N)C1CN(c2c(C(=O)NC34CC(C3)C4)cncc2-c2cc(F)cc(F)c2)C1 (centres unmarked)
result: 10 to 100 nM

query: Find the recorded EC50 belonging to `COc1cc(C#N)cc(-c2c(C)ncc(C(=O)NC3CC(F)(F)C3)c2N2CC[C@](C)(N)C2)c1` and report it.
result: < 10 nM

query: If you can, please state the reported EC50 value of Cc1cccc2[nH]c(-c3cncc(C(=O)N4CCC(C5CC5)C4)c3N3CC[C@](C)(N)C3)nc12 (some centres unmarked) .
result: < 10 nM

query: Would you kindly share the measured EC50 for `Cc1ncc(C(=O)N[C@@H](C)C(F)(F)F)c(N2CC[C@](C)(N)C2)c1-c1ccc(F)c(F)c1` ?
result: < 10 nM

query: Entry under review: `Cc1cccc2[nH]c(-c3cncc(C(=O)N4CC5CCC4CC5)c3N3CC[C@](C)(N)C3)nc12` . Reported EC50?
result: < 10 nM
